Documented MIC across a set of compounds
- Test system: Strep.haem. A 266
- run.description: agar serial dilution test
- Assay type: cell-based, Streptococcus haemolyticus
- condition.context: Streptococcus; agar serial dilution, 24 hours, 37° C.; read-out: minimal inhibitory concentration (MIC)
Give your result in µg/mL as a bare value.

In the examples that follow, each entry is paired with its recorded MIC.
compound	reported.result
Cc1noc(CC(=O)N[C@@H]2C(=O)N3[C@@H]2SC(C)(C)[C@@H]3C(=O)O)n1 [Example 11B]	0.03
CC1(C)S[C@@H]2[C@H](NC(=O)Cc3nc(-c4c(Cl)cccc4Cl)no3)C(=O)N2[C@H]1C(=O)O [Example 11A]	1
CC(=O)OCC1=C(C(=O)O)N2C(=O)[C@@H](NC(=O)Cc3cccs3)[C@H]2SC1 [Cephalotin, reference compound]	0.06
CC(=O)OCC1=C(C(=O)O)N2C(=O)[C@@H](NC(=O)Cc3noc(C)n3)[C@H]2SC1 [Example 11D]	0.5
CC(=O)OCC1=C(C(=O)O)N2C(=O)[C@@H](NC(=O)C(C)c3nc(C)no3)[C@H]2SC1 (mixture of isomers) [Example 11I]	0.25
CC(=O)OCC1=C(C(=O)O)N2C(=O)[C@@H](NC(=O)C(c3ccccc3)c3nc(C)no3)[C@H]2SC1 (stereo partly drawn)	0.5
CC(=O)OCC1=C(C(=O)O)N2C(=O)[C@@H](NC(=O)Cc3nc(-c4c(C)cc(C)cc4C)no3)[C@H]2SC1	0.03
CC1=C(C(=O)O)N2C(=O)[C@@H](NC(=O)Cc3nc(Cc4ccccc4)no3)[C@H]2SC1	25

Switching to the query record.
Ask: Given the compound Cc1noc(C(C)C(=O)N[C@@H]2C(=O)N3[C@@H]2SC(C)(C)[C@@H]3C(=O)O)n1 (mixture of isomers) [Example 11H] , write its reported MIC.
Result: 0.5

Where do the numbers come from? From patent US4160829A.
